All values here come from ChEMBL document CHEMBL2177069.

- Tested on: HOP-62
- test_details: Cytotoxicity against human HOP62 cells
- Type: functional
Recorded LC50, one value per entry.
property: LC50 (µM)

[[record]]
molecule = "CC1=C([Se]CC(OC(=O)[C@@H](CO)NC(=O)OC(C)(C)C)C(=O)NC(C)(C)C)C(=O)c2ccccc2C1=O (some centres undefined)"
reported_measurement = 4.37

[[record]]
molecule = "CC1=C([Se]CC(OC(=O)[C@@H](CSSC(C)(C)C)NC(=O)C(C)(C)C)C(=O)NCCCCCC(=O)OCc2ccccc2)C(=O)c2ccccc2C1=O (some centres undefined)"
reported_measurement = 9.12

[[record]]
molecule = "CC1=C([Se]CC(OC(=O)[C@@H](CO)NC(=O)OC(C)(C)C)C(=O)NCCCCCC(=O)OCc2ccccc2)C(=O)c2ccccc2C1=O (some centres undefined)"
reported_measurement = 4.79

[[record]]
molecule = "CC1=C(SCCC(=O)OC(C[Se]C2=C(C)C(=O)c3ccccc3C2=O)C(=O)NCCCCCC(=O)OCc2ccccc2)C(=O)c2ccccc2C1=O (centres undefined)"
reported_measurement = 39.8

